Numbers sourced from patent US4663458A.

experiment: Aqueous solubility of m-AMSA base and salts; conditions: water
Counter-ions that a name gives are not always drawn.
measurement.kind: solubility

INSERT INTO measurements (compound, obs_value) VALUES
  ('COc1cc(NS(C)(=O)=O)ccc1Nc1c2ccccc2nc2ccccc12 [m-AMSA L(+)-lactate monohydrate salt]', '~2500 µg/mL');
